Biological target: T1, 4H3414-bA
T1 chain: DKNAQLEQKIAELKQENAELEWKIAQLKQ
Assay: two-hybrid library CCNG1;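 also: natural log of median RNA to DNA barcode read ratio; higher means stronger binding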
Please go through the items and note down their interaction score.
Output spec: single numeric token, no unit.

Ask: Suppose we examine the binder DENAQLEQKIAELKQKNAELEWEIAQLEQ [4H1393-bA] ; what interaction score value has been reported?
Reply: 0.166

Ask: Bench note: what interaction score did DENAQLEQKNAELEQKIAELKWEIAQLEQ [4H1449-bA] show?
Reply: -1.03

Ask: Param item = DKNAQLEQKIAELKQENAELEWKIAQLKQ [4H3414-bA] ; retrieve measured interaction score.
Reply: 0.915

Ask: Tell me the measured interaction score of DENAQLEQKIAELKQEIAELKWKNAQLEQ [4H1359-bA] , please.
Reply: -0.665

Ask: What value of measured interaction score is listed for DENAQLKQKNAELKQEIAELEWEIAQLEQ [4H1985-bA] ?
Reply: -1.09

Ask: Fill blank: measured interaction score of the binder DKNAQLEQEIAELEQKNAELKWEIAQLEQ [4H3129-bA] is ____.
Reply: 2.61

Ask: Name the recorded interaction score for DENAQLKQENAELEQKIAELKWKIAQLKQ [4H1710-bA] .
Reply: -0.541
